Each entry below carries its reported IC50.
TARGET_OR_SYSTEM: HLA-DQ molecule DQB1*0502 (human)
ASSAY_OVERVIEW: inhibition of radiolabeled peptide binding to purified HLA-DQ
VALUE_TYPE: IC50 (µM)

>>> measurement("PARLFKAFVLDSDNL [Que a 1 (16-30) peptide PARLFKAFVLDSDNL]")
0.0079
>>> measurement("EKALWIIFSQNMNIK [Cup s 1 (86-100) peptide EKALWIIFSQNMNIK]")
13
>>> measurement("DIYNYMEPYVSKVDP [Dac g 4 (1-15) peptide DIYNYMEPYVSKVDP]")
2.02
>>> measurement("ASEVFKAVEAYLVAH [Que a 1 (141-155) peptide ASEVFKAVEAYLVAH]")
5.31
